- TARGET ENTITY: HIV-1 reverse transcriptase (Human immunodeficiency virus 1, UniProt P03366;P03366 P03366:600-1159,P03366:600-1039)
- EXPERIMENT NOTES: inhibition; Ki', RNA-dependent DNA polymerase activity
- TEST SETTINGS: tags: expressed in E. coli, purified per Davies et al. 1991; pseudoknot
REPORTED ENDPOINT: Ki
A complete answer gives the number and then names the unit.

In: Name the recorded Ki of the item GGUCCGAAGUGCAACGGGAAAAUGCACU (ssRNA) [RNA pseudoknot (RNA pk)] in your answer.
Out: 4.7 nM
